A collection of binders and their measured OD450
# target_under_test: T1, human MSLN-R2-his protein (human, UniProt Q13421 391-486)
# T1 construct: also called human MSLN-R2 protein; hMSLN-R2-his; not shown: His tag
# measurement_description: ELISA, coated antigen; antibody 0.0001 nM

binder	OD450 [OD450]
S009-F3.80.22 (antibody, human IgG1, kappa, V domains shown, Human-murine chimeric antibody, human IgG1/kappa constant regions) VH: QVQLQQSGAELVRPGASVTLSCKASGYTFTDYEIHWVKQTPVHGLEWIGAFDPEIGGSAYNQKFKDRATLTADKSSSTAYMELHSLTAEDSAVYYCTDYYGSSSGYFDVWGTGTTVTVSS VL: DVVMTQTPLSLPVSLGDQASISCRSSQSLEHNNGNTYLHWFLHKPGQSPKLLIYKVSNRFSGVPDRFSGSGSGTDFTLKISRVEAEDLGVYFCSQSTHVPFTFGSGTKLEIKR	0.07
S009-F3.7.3 (antibody, human IgG1, kappa, V domains shown, Human-murine chimeric antibody: murine VH/VL on human IgG1 heavy chain constant region and human kappa constant region) VH: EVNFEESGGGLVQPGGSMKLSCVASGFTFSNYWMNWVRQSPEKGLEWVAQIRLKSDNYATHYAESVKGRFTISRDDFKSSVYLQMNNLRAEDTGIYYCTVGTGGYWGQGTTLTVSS VL: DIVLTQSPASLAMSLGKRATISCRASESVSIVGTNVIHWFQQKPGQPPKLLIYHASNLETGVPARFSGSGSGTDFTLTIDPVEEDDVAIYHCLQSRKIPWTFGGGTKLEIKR	0.07
S009-F3.38.10 (antibody, human IgG1, kappa, V domains shown, Human-murine chimeric antibody, human IgG1/kappa constant regions) VH: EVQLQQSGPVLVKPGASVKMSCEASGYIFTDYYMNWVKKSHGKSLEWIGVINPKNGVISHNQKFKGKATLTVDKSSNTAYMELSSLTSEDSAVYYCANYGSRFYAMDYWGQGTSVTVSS VL: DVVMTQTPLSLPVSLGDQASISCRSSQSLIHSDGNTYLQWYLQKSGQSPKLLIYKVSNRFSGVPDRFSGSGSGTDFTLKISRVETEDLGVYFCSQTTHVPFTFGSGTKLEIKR	0.07
S009-F3.16.1 (antibody, human IgG1, kappa, V domains shown, Human-murine chimeric antibody, human IgG1/kappa constant regions) VH: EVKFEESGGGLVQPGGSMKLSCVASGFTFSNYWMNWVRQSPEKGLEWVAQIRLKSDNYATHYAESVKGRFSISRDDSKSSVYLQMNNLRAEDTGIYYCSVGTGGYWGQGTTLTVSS VL: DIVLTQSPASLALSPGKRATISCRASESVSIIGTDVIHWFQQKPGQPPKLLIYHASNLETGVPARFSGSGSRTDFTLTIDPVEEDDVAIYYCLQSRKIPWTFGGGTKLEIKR	0.06
